target: human EGF-R (Homo sapiens, UniProt P00533); construct: packaging line GP+E86); experiment: Inhibition of EGF-dependent proliferation of F/L-HERc cells (Cell Titer 96 assay); conditions: F/L-HERc cells (murine IL-3-dependent line expressing human EGF-R), stimulated with EGF 20 ng/ml, 48 hours at 37° C.
Sequence (P00533 25-1210): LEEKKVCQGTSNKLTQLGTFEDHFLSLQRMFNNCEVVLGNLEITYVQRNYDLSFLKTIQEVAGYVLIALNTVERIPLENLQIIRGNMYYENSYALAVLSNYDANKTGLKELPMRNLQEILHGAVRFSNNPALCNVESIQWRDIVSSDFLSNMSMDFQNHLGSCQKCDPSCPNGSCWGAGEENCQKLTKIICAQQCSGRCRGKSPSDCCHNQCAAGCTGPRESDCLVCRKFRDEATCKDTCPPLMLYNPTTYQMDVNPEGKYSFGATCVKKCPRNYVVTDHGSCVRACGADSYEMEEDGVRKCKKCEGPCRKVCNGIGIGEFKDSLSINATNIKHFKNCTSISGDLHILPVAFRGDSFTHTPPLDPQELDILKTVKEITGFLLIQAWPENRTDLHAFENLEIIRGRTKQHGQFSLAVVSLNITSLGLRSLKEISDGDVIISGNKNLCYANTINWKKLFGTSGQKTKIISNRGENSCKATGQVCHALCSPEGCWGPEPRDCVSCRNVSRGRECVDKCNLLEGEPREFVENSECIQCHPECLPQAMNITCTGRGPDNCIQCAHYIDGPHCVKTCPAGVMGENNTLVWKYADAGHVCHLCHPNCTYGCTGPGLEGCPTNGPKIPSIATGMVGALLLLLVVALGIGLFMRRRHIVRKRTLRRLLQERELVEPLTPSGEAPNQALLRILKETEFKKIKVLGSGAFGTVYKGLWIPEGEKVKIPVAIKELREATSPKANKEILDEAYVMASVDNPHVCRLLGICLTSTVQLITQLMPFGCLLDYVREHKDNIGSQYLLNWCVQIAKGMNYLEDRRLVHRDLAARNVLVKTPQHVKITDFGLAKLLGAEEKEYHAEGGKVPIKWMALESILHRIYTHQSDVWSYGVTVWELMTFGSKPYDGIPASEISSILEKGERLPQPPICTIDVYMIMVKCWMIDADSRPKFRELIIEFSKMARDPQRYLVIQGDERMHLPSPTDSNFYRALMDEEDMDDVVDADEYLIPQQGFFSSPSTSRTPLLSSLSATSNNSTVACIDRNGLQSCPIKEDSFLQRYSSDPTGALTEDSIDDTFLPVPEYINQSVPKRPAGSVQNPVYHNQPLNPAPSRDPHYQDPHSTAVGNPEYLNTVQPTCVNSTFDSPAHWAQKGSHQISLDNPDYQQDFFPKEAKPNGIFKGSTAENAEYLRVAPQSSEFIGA
pIC50: −log10 of the molar value.
Property: pIC50

Sample answers from the record:
COC(=O)CN(CC(=O)OC)C1CCC(N(C)c2ncc3ncnc(Nc4ccc(F)c(Cl)c4)c3n2)CC1 (stereo not drawn) [3(12)] ... 6.99
CCOC(=O)CN1CCN(c2ncc3ncnc(Nc4ccc(F)c(Cl)c4)c3n2)CC1 [2(10)] ... 5.69
COC(=O)CN1CCC(Nc2ncc3ncnc(Nc4cccc(C)c4)c3n2)CC1 [2(24)] ... 7.14

[P] COC(=O)CN(CC(=O)OC)[C@H]1CC[C@H](Nc2ncc3ncnc(Nc4ccc(F)c(Cl)c4)c3n2)CC1 [3(5)]
[Q] CN(CCC(=O)O)C1CCN(c2ncc3ncnc(Nc4ccc(F)c(Cl)c4)c3n2)CC1 [1(11)]
Prompt: Lower pIC50: P or Q ? Pick one and reply with its label.
Response: Q
(Q: 5.63, P: 7.70)

[A] O=C(O)CCN1CCC(N2CCN(c3ncc4ncnc(Nc5ccc(F)c(Cl)c5)c4n3)CC2)CC1 [1(8)]
[B] O=C(O)CN1CCC(Nc2ncc3ncnc(Nc4ccc(F)c(Cl)c4)c3n2)CC1 [Example 1]
Prompt: Kindly identify the item with the lower pIC50 figure among these two: A and B Selection: enter the item's label.
Response: A
(A: 5.84, B: 6.08)

[1] CN(CC(=O)O)[C@H]1CC[C@H](Nc2ncc3ncnc(Nc4ccc(F)c(Cl)c4)c3n2)CC1 [1(3)]
[2] COC(=O)CN[C@H]1CC[C@H](Nc2ncc3ncnc(Nc4ccc(F)c(Cl)c4)c3n2)CC1 [3(10)]
[3] COC(=O)C(C(=O)OC)N1CCC(Nc2ncc3ncnc(Nc4ccc(F)c(Cl)c4)c3n2)CC1 [3(18)]
[4] O=C1CN(C2CCC(Nc3ncc4ncnc(Nc5ccc(F)c(Cl)c5)c4n3)CC2)CCO1 (stereo not drawn) [Example 7]
Prompt: // sort entries: pIC50, high to low The reply should contain the labels ordered as requested.
Response: 2, 3, 4, 1
(2: 7.80, 3: 7.40, 4: 6.91, 1: 6.49)

[I] COC(=O)CN1CCC(Nc2ncc3ncnc(Nc4cccc(Br)c4)c3n2)CC1 [2(17)]
[II] COC(=O)CN(C)CC1CCN(c2ncc3ncnc(Nc4ccc(F)c(Cl)c4)c3n2)CC1 [2(19)]
Prompt: Field: lower recorded pIC50 (choose I or II ) Label of pick, please.
Response: II
(II: 6.89, I: 7.52)

###

Property: melting point

Solved entries (count: 5):
NC1(C(=O)O)CCN(c2ncc3ncnc(Nc4ccc(F)c(Cl)c4)c3n2)CC1 ... 277 to 282 °C
CC1(NCC(=O)O)CCN(c2ncc3ncnc(Nc4ccc(F)c(Cl)c4)c3n2)CC1 ... 160 °C (dec.)
CN(CC(=O)O)[C@H]1CC[C@H](Nc2ncc3ncnc(Nc4ccc(F)c(Cl)c4)c3n2)CC1 ... 220 to 228 °C
O=C(O)CN1CCC(Nc2ncc3ncnc(Nc4ccc(F)c(Cl)c4)c3n2)CC1 ... 202 to 205 °C
O=C(O)CCN(CCC(=O)O)CC1CCN(c2ncc3ncnc(Nc4ccc(F)c(Cl)c4)c3n2)CC1 ... 160 to 169 °C

Prompt: Would you kindly share the measured melting point for O=C(O)CNCC1CCN(c2ncc3ncnc(Nc4ccc(F)c(Cl)c4)c3n2)CC1 ?
Response: 226 to 235 °C

Prompt: Param item = CCCOC(=O)CN1CCC(Nc2ncc3ncnc(Nc4ccc(F)c(Cl)c4)c3n2)CC1 ; retrieve measured melting point.
Response: 135 to 137 °C

Prompt: Returns the measured melting point for the input compound. Input: COC(=O)CN1CCC(Nc2ncc3ncnc(Nc4cc(Cl)c(N)c(Cl)c4)c3n2)CC1
Response: 218 °C

Prompt: What value of measured melting point is listed for COC(=O)CN1CCC(Nc2ncc3ncnc(Nc4cccc(Cl)c4)c3n2)CC1 ?
Response: 129 °C

Prompt: Entry under review: O=C(O)CCN1CCC(N2CCN(c3ncc4ncnc(Nc5ccc(F)c(Cl)c5)c4n3)CC2)CC1 . Reported melting point?
Response: 213 °C (dec.)

Prompt: Entry under review: O=C(O)CCN1CCC(Nc2ncc3ncnc(Nc4ccc(F)c(Cl)c4)c3n2)CC1 . Reported melting point?
Response: 217 to 225 °C

Prompt: // melting point lookup, key: COC(=O)CN1CCC(Nc2ncc3ncnc(Nc4cccc(Br)c4)c3n2)CC1
Response: 144 °C

Prompt: So what does the record say about melting point for COC(=O)CCN1CCN(c2ncc3ncnc(Nc4ccc(F)c(Cl)c4)c3n2)CC1 ?
Response: 140 to 142 °C

Prompt: Name the recorded melting point for CCOC(=O)CN1CCC(CCNc2ncc3ncnc(Nc4ccc(F)c(Cl)c4)c3n2)CC1 .
Response: 128 to 130 °C

Prompt: Data request, read-out melting point, for CCOC(=O)CN1CCN(c2ncc3ncnc(Nc4ccc(F)c(Cl)c4)c3n2)CC1
Response: 179 to 182 °C

Prompt: Look at this compound and give its reported melting point. CCOC(=O)CC(CC(=O)OCC)N1CCC(Nc2ncc3ncnc(Nc4cccc(Br)c4)c3n2)CC1
Response: 132 °C

Prompt: What melting point value was documented for this compound, COC(=O)CCN(C)[C@H]1CC[C@H](Nc2ncc3ncnc(Nc4ccc(F)c(Cl)c4)c3n2)CC1 ?
Response: 126 to 128 °C
